- Tested on: VCR resistant murine leukemia (P388/VCR) cells
- run.description: In vivo overcoming of resistance in VCR resistant murine leukemia (P388/VCR) bearing mice, etoposide with compound 20 mg/kg
- Set-up: species or system CDF1 female mice
- condition.info: VP-16 3 mg/kg + compound 20 mg/kg, i.v. once per day for 5 days
The entries below are paired with their reported Average days of survival.
measured.parameter: Average days of survival (days)

1) CCOC(=O)C1=C(c2ccc(-n3c(C)nc4cnccc43)cc2)NC(C)=C(C(=O)OCC#Cc2cccnc2)C1/C=C/c1ccccc1 (stereo not drawn)    17.0
2) CCOC(=O)C1=C(c2ccc(-n3c(C)nc4cnccc43)cc2)NC(C)=C(C(=O)OCC#Cc2cccnc2)C1/C=C/c1ccccc1Cl (stereo not drawn)    16.8
3) CCOC(=O)C1=C(c2ccc(-n3c(C)nc4cnccc43)cc2)NC(C)=C(C(=O)OC(C)C#Cc2cccnc2)C1CCc1ccccc1 (stereo not drawn)    15.8
4) CCOC(=O)C1=C(c2ccc(-n3c(C)nc4cnccc43)cc2)NC(C)=C(C(=O)OCC#Cc2cccnc2)C1CCc1ccccc1OC (stereo not drawn)    15.7
5) CCOC(=O)C1=C(c2ccc(-n3c(C)nc4cnccc43)cc2)NC(C)=C(C(=O)OCC#Cc2cccnc2)C1CCc1ccccc1 (stereo not drawn)    15.0
6) CCOC(=O)C1=C(c2ccc(-n3c(C)nc4cnccc43)cc2)NC(C)=C(C(=O)OCC#Cc2cccnc2)C1C (stereo not drawn)    13.6

src = patent US6306853A
